Experiment: Multi-component pharmacokinetics of AAs in rats after oral administration of AF and HAF extracts (HPLC-MS/MS of plasma)
Set-up: species or system Sprague–Dawley (SD) rats
Conditions: Sprague-Dawley, rat, in vivo, 8 mg/kg, AF extract, mid dose (8.0 mg/kg as AA I), analyte dose mg/kg: AA I 8.0, AA II 0.56, AA C 3.78, AA D 4.26, 7-OH AA I 6.22, n = 6
Listed below: AUC(0-inf) values for each entry.

| Item smiles | AUC(0-inf) / ng·h/mL |
| --- | --- |
| COc1cc(O)cc2c1cc([N+](=O)[O-])c1c(C(=O)O)cc3c(c12)OCO3 | 402 |
| COc1c(O)ccc2c1cc([N+](=O)[O-])c1c(C(=O)O)cc3c(c12)OCO3 | 1160 |
| COc1cccc2c1cc([N+](=O)[O-])c1c(C(=O)O)cc3c(c12)OCO3 | 12800 |
| O=C(O)c1cc2c(c3c1c([N+](=O)[O-])cc1ccccc13)OCO2 | 7820 |

###

Listed below: half-life values for each entry.
Assay: Multi-component pharmacokinetics of AAs in rats after oral administration of AF and HAF extracts (HPLC-MS/MS of plasma)
Parameters: species or system Sprague–Dawley (SD) rats
Settings: Sprague-Dawley, rat, in vivo, 8 mg/kg, AF extract, mid dose (8.0 mg/kg as AA I), analyte dose mg/kg: AA I 8.0, AA II 0.56, AA C 3.78, AA D 4.26, 7-OH AA I 6.22, n = 6, read-out: t 1/2z (converted)

| Item smiles | Unit descriptor | half-life |
| --- | --- | --- |
| COc1cccc2c1cc([N+](=O)[O-])c1c(C(=O)O)cc3c(c12)OCO3 | h | 5.58 |
| O=C(O)c1cc2c(c3c1c([N+](=O)[O-])cc1ccccc13)OCO2 | h | 5.06 |
| COc1cc(O)cc2c1cc([N+](=O)[O-])c1c(C(=O)O)cc3c(c12)OCO3 | h | 2.43 |
| COc1c(O)ccc2c1cc([N+](=O)[O-])c1c(C(=O)O)cc3c(c12)OCO3 | h | 3.25 |

###

Test: Multi-component pharmacokinetics of AAs in rats after oral administration of AF and HAF extracts (HPLC-MS/MS of plasma)
Parameters: species or system Sprague–Dawley (SD) rats
Conditions: Sprague-Dawley, rat, in vivo, 15 mg/kg, HAF extract, high dose (15.0 mg/kg as AA I), analyte dose mg/kg: AA I 15.0, AA II 1.29, AA C 7.66, AA D 7.56, 7-OH AA I 12.41, n = 6, read-out: CLz/F (converted)
Listed below: CL/F values for each entry.
Parameter: CL/F (mL/min/kg)

| Item smiles | Unit descriptor | Data value |
| --- | --- | --- |
| O=C(O)c1cc2c(c3c1c([N+](=O)[O-])cc1ccccc13)OCO2 | mL/min/kg | 1.5 |
| COc1c(O)ccc2c1cc([N+](=O)[O-])c1c(C(=O)O)cc3c(c12)OCO3 | mL/min/kg | 207 |
| COc1cccc2c1cc([N+](=O)[O-])c1c(C(=O)O)cc3c(c12)OCO3 | mL/min/kg | 12 |
| COc1cc(O)cc2c1cc([N+](=O)[O-])c1c(C(=O)O)cc3c(c12)OCO3 | mL/min/kg | 206 |
